Entries and their IC50 at 48 h
measurementNotes: Cell viability (cytotoxicity) assay
Assay type: cell-based
conditionSet: human, MDA-MB-231 cells, 48 h treatment

{"compound": "COc1ccc2oc(-c3nc(C(=O)NC(=N)N)c(N)nc3N)cc2c1 [compound 14]", "resultQualifier": ">", "IC50 at 48 h (µM)": 100}
{"compound": "N=C(N)NC(=O)c1nc(-c2cc3ncccc3o2)c(N2CCCCCC2)nc1N [compound 21]", "resultQualifier": "=", "IC50 at 48 h (µM)": 43.1}
{"compound": "CCN(c1nc(N)c(C(=O)NC(=N)N)nc1-c1cc2ccccc2o1)C(C)C [compound 33]", "resultQualifier": "=", "IC50 at 48 h (µM)": 17.2}
{"compound": "N=C(N)NC(=O)c1nc(-c2cc3cc(Br)ccc3o2)c(N)nc1N [compound 12]", "resultQualifier": "=", "IC50 at 48 h (µM)": 32.1}
{"compound": "COc1ncc(-c2nc(C(=O)NC(=N)N)c(N)nc2N2CCCOCC2)cn1 [compound 43]", "resultQualifier": ">", "IC50 at 48 h (µM)": 100}
